- TEST_METHOD_NOTES: in vitro
- Type: cell-based
- REPORTED_CONDITIONS: Chinese hamster
# IC50 at 24 h per entry

// below: answered compounds
{"COMPOUND": "CN(C)[C@@H]1C(O)=C(C(N)=O)C(=O)[C@@]2(O)C(O)=C3C(=O)c4c(O)ccc(CNOCC(F)(F)F)c4C[C@H]3C[C@@H]12 [DZ]", "IC50 at 24 h": "< 35 µg/mL"}
{"COMPOUND": "CN(C)[C@@H]1C(O)=C(C(N)=O)C(=O)[C@@]2(O)C(O)=C3C(=O)c4c(O)ccc(/C=N/n5cccc5)c4C[C@H]3C[C@@H]12 [AC]", "IC50 at 24 h": "< 35 µg/mL"}

Would you kindly look at the next entry?
Query: Looking for the measured IC50 at 24 h of CN(C)[C@@H]1C(O)=C(C(N)=O)C(=O)[C@@]2(O)C(O)=C3C(=O)c4c(O)ccc(-c5ncco5)c4C[C@H]3C[C@@H]12 [J] , can you help?
Response: < 35 µg/mL

###

- TEST_METHOD_NOTES: in vitro
- Format: cell-based
- REPORTED_CONDITIONS: African green monkey
# IC50 at 24 h per entry

{"STRUCTURE_AS_SMILES": "CN(C)[C@H]1C(O)=C(C(N)=O)C(=O)[C@@]2(O)C(O)=C3C(=O)c4c(O)ccc(CNOCC(F)F)c4C[C@H]3C[C@@H]12", "IC50 at 24 h": "> 75 mg/L"}
{"STRUCTURE_AS_SMILES": "CN(C)[C@@H]1C(O)=C(C(N)=O)C(=O)[C@@]2(O)C(O)=C3C(=O)c4c(O)ccc(/C=N/n5cccc5)c4C[C@H]3C[C@@H]12", "IC50 at 24 h": "< 35 mg/L"}
{"STRUCTURE_AS_SMILES": "C/C(=N\\OC(C)(C)C)c1cc(N)c(O)c2c1C[C@H]1C[C@H]3[C@@H](N(C)C)C(O)=C(C(N)=O)C(=O)[C@@]3(O)C(O)=C1C2=O", "IC50 at 24 h": "< 35 mg/L"}

Query: Looking for the measured IC50 at 24 h of CN(C)[C@@H]1C(O)=C(C(N)=O)C(=O)[C@@]2(O)C(O)=C3C(=O)c4c(O)ccc(CN5CCCO5)c4C[C@H]3C[C@@H]12 , can you help?
Response: > 75 mg/L

Query: Looking for the measured IC50 at 24 h of CN(C)[C@@H]1C(O)=C(C(N)=O)C(=O)[C@@]2(O)C(O)=C3C(=O)c4c(O)ccc(-c5nccs5)c4C[C@H]3C[C@@H]12 , can you help?
Response: < 35 mg/L

Query: Looking for the measured IC50 at 24 h of CN(C)[C@@H]1C(O)=C(C(N)=O)C(=O)[C@@]2(O)C(O)=C3C(=O)c4c(O)ccc(-c5cnoc5)c4C[C@H]3C[C@@H]12 , can you help?
Response: < 35 mg/L

###

- TEST_METHOD_NOTES: in vitro
- Format: cell-based
- REPORTED_CONDITIONS: African green monkey
READOUT_KIND: IC50 at 24 h

// below: answered compounds
{"COMPOUND": "CCO/N=C(/CCN(C)C)c1ccc(O)c2c1C[C@H]1C[C@H]3[C@@H](N(C)C)C(O)=C(C(N)=O)C(=O)[C@@]3(O)C(O)=C1C2=O [AN]", "DATA_VALUE": "> 75 µg/mL"}
{"COMPOUND": "CCON(C)Cc1ccc(O)c2c1C[C@H]1C[C@H]3[C@H](N(C)C)C(O)=C(C(N)=O)C(=O)[C@@]3(O)C(O)=C1C2=O [AE]", "DATA_VALUE": "> 75 µg/mL"}
{"COMPOUND": "CC(C)ONCc1ccc(O)c2c1C[C@H]1C[C@H]3[C@H](N(C)C)C(O)=C(C(N)=O)C(=O)[C@@]3(O)C(O)=C1C2=O [DV]", "DATA_VALUE": "< 35 µg/mL"}
{"COMPOUND": "CN(C)CC/C(=N\\OC(C)(C)C)c1ccc(O)c2c1C[C@H]1C[C@H]3[C@H](N(C)C)C(O)=C(C(N)=O)C(=O)[C@@]3(O)C(O)=C1C2=O [O]", "DATA_VALUE": "35 to 75 µg/mL"}
{"COMPOUND": "CCONCc1ccc(O)c2c1C[C@H]1C[C@H]3[C@@H](N(C)C)C(O)=C(C(N)=O)C(=O)[C@@]3(O)C(O)=C1C2=O [AM]", "DATA_VALUE": "> 75 µg/mL"}

Would you kindly look at the next entry?
Query: Looking for the measured IC50 at 24 h of CON(C)Cc1ccc(O)c2c1C[C@H]1C[C@H]3[C@@H](N(C)C)C(O)=C(C(N)=O)C(=O)[C@@]3(O)C(O)=C1C2=O [Y] , can you help?
Response: > 75 µg/mL
